Where do the numbers come from? From PubChem BioAssay (NCI).

- System: HS 578T breast
- assay text: NCI tumour cell line growth inhibition, 48 h
measure name: TGI

molecule: O=C(Nc1n[nH]c2nc(-c3ccco3)ccc12)C1CC1
measure name: TGI
reported measurement: > 25 µM
--
molecule: CCOC(=O)n1[nH]c(=O)n(-c2ccccc2)c1=O
measure name: TGI
reported measurement: > 100 µM
--
molecule: CNNCc1ccc(C(=O)NC(C)C)cc1
measure name: TGI
reported measurement: > 500 µM
--
molecule: Cc1cc2c(c(C=Nc3ccc([N+](=O)[O-])cc3)c1)OC1(C=C2)Oc2ccccc2C(=O)N1C (centres undefined)
measure name: TGI
reported measurement: > 100 µM
--
molecule: O=C1OCC2(CO1)CC1C=CC2C1 (centres undefined)
measure name: TGI
reported measurement: > 100 µM
--
molecule: O=C(O)C(CSC(c1ccccc1)(c1ccccc1)c1ccccc1)N=Cc1cccs1 (centres undefined)
measure name: TGI
reported measurement: > 34.2 µM
--
molecule: c1ccc(C2C3=C(CCCC3)Nc3nc4cc5ccccc5cc4n32)cc1 (centres undefined)
measure name: TGI
reported measurement: > 100 µM
--
molecule: O=S(=O)(O)c1cccc2c(N=Nc3c(O)ccc4ccccc34)cccc12
measure name: TGI
reported measurement: > 100 µM
--
molecule: COC1O[C@@H]2CCN3C(=O)[C@@H](OC(=O)c4ccc([N+](=O)[O-])cc4)[C@H]1C23 (some centres undefined)
measure name: TGI
reported measurement: > 100 µM
--
molecule: CCOP(=O)(OCC)C1CC(O)CN1OC(=O)C(C)(C)C (centres undefined)
measure name: TGI
reported measurement: > 100 µM
--
molecule: C[C@]12CCC(=O)C=C1CC[C@@H]1[C@@H]2[C@@H](O)C[C@@]2(C)[C@H]1CC[C@]2(O)C(=O)CO
measure name: TGI
reported measurement: > 100 µM
--
molecule: CC(=O)Nc1ccc(C(=O)NN2C(=O)C(Cl)C2c2cc(Br)ccc2O)cc1 (centres undefined)
measure name: TGI
reported measurement: > 100 µM
--
molecule: CCOC(=O)c1ccc(N(CCOS(C)(=O)=O)CCOS(C)(=O)=O)cc1C
measure name: TGI
reported measurement: > 100 µM
--
molecule: C[C@]12CCC(=O)C=C1CC[C@@H]1[C@@H]2CC[C@]2(C)C(=O)[C@H](n3ccnc3)C[C@@H]12
measure name: TGI
reported measurement: > 100 µM
--
molecule: OCC1NCC(O)C(O)C1O (centres undefined)
measure name: TGI
reported measurement: > 100 µM
--
molecule: N#CC(=S)Nc1ccc(Cl)c(Cl)c1
measure name: TGI
reported measurement: > 100 µM
--
molecule: CC1(C)C=C(/C=N/Nc2ccc([N+](=O)[O-])cc2)C(C#N)=C(O)C1(C#N)C#N
measure name: TGI
reported measurement: > 100 µM
--
molecule: C/C(CC(=O)NNc1ccc([N+](=O)[O-])cc1)=N\Nc1ccc([N+](=O)[O-])cc1
measure name: TGI
reported measurement: > 100 µM
--
molecule: OCCOCn1cc(Cn2ncc3c(SCc4ccccc4)ncnc32)nn1
measure name: TGI
reported measurement: > 100 µM

----------
Measured TGI, listed per entry.
- Test system: A549 NSCLC
- assay text: NCI tumour cell line growth inhibition, 48 h
measure name: TGI

compound: C/C(=N\NC(=O)c1cccnc1)c1cccc(/C(C)=N/NC(=O)c2cccnc2)n1
study system: A549 NSCLC
reported measurement: 34.7 µM
--
compound: CC(=O)OC1CC(O)CC2=CCC3C4CCC(C(C)(O)C(O)CC5COC(=O)C5C)C4(C)CCC3C21C (stereo unspecified)
study system: A549 NSCLC
reported measurement: > 25 µM
--
compound: COc1ccc(C(=O)N2CCc3c([nH]c4ccccc34)C2C(=O)O)o1 (stereo unspecified)
study system: A549 NSCLC
reported measurement: > 10 µM
--
compound: Nc1ncnc(NC2C=C(CO)C(O)C2O)c1[N+](=O)[O-] (stereo unspecified)
study system: A549 NSCLC
reported measurement: > 100 µM
--
compound: CCCCCCCCCCCCn1c(=O)cc(NCCCC)c2cc3c(NCCCC)cc(=O)n(CCCCCCCCCCCC)c3nc21
study system: A549 NSCLC
reported measurement: > 100 µM
--
compound: CCOC(=O)C(Cc1ccccc1)NC(=O)c1ccc(N=NN(C)C)cc1 (stereo unspecified)
study system: A549 NSCLC
reported measurement: > 100 µM

----------
# maps each entry to its TGI
- Tested on: MDA-MB-231 breast
- assay text: NCI tumour cell line growth inhibition, 48 h
measure name: TGI

compound: COc1c2c(cc3c1C(O)N1CC[C@]34[C@H]3O[C@H]3[C@H](OC)C[C@@H]14)OCO2 (stereo partly drawn)
reported measurement: > 100 µM
--
compound: CCCCOC(=O)C1CN2C=CC=NC2=NC1(C(F)(F)F)C(F)(F)F (stereo not drawn)
reported measurement: > 100 µM
--
compound: OCCOCn1cc(Cn2ncc3c(SCc4ccccc4)ncnc32)nn1
reported measurement: > 100 µM

----------
- Tested on: EKVX NSCLC
- assay text: NCI tumour cell line growth inhibition, 48 h

compound: Clc1ccc(Nc2nc(Cl)c3[nH]cnc3n2)cc1Cl
TGI: 49.1 µM

compound: C/C=C/C=N/N(C(=O)c1cc([N+](=O)[O-])cc([N+](=O)[O-])c1)C1=NC(c2ccccc2)C(c2ccccc2)=NN1 (stereo unspecified)
TGI: > 100 µM

compound: CCOC(=O)c1c(-c2ccccc2)[n+](=O)c2ccc(Cl)cc2n1[O-]
TGI: 8.32 µM

compound: CN(C)C(=O)/N=c1\ss/c(=N\C(=S)N(C)C)n1-c1ccccc1
TGI: > 100 µM

compound: CCOC(=O)c1sc2nc(SC)nc3c2c1N=CN3c1ccccc1Cl
TGI: > 100 µM

compound: Cc1ccc([N+](=O)[O-])cc1NC(=O)C(=O)Cc1occc(=O)c1O
TGI: > 100 µM

----------
Endpoint: GI50. System: SF-539 CNS. Items follow.

substance smiles: ClCc1ccc(-c2ccc(Cn3cnc4c(Cl)nc(Cl)nc43)cc2)cc1
GI50: 2.14 µM
--
substance smiles: CCOC(=O)/C(=C/c1ccc([N+](=O)[O-])cc1)C(=O)c1ccccc1
GI50: 1.82 µM
--
substance smiles: CCOC(=O)c1c(-c2ccccc2)[n+](=O)c2ccc(Cl)cc2n1[O-]
GI50: 2.97 µM

----------
- Tested on: OVCAR-8 ovarian
- assay text: NCI tumour cell line growth inhibition, 48 h
Where a SMILES comes first, the peptide text is derived from it. [ ]: non-standard residue; d: D form. The star is where a group is joined. ξ: configuration not given here. dThr(3ξ) = CC(O)[C@@H](N)C(=O)O; dNMeL = CN[C@H](CC(C)C)C(=O)O; OBn = c1ccc(CO*)cc1; ξLac = CC(O)C(=O)O
Catalogue of molecules with associated TGI

molecule: O=C(O)CC(Nc1ccccc1)C(=O)O (configuration not stated)
TGI: > 100 µM

molecule: CNNCc1ccc(C(=O)NC(C)C)cc1
TGI: > 500 µM

molecule: COC(=O)C(=O)c1c2ccccc2n2ccc3c4ccccc4[nH]c3c12
TGI: > 10 µM

molecule: CC1=NN(C(=O)CC(=O)Nc2ccccc2Cl)C(=O)C1N=Nc1ccc(C(=O)O)cc1 (configuration not stated)
TGI: > 100 µM

molecule: CN1C2CCC1C(C(O)c1ccccc1[N+](=O)[O-])C(=O)C2 (configuration not stated)
TGI: > 100 µM

molecule: CCOc1ccccc1N=Nc1c(-c2ccccc2)nn(C(=O)CC(=O)Nc2cccc(Cl)c2)c1-c1ccccc1
TGI: > 100 µM

molecule: CCCCCCCC/C=C\CCCCCCC(F)C(=O)O (configuration not stated)
TGI: > 12.5 µM

molecule: [O-][N+](CCO)(CCO)c1ncnc2nc[nH]c12
TGI: > 100 µM

molecule: CCOC(=O)CC(=O)C(=O)NNC1=NCCCN1
TGI: > 100 µM

molecule: COC(=O)C1(C(=O)OC)CC2c3c(c4ccccc4n3C)CC(C1=O)N2Cc1ccccc1 (configuration not stated)
TGI: > 100 µM

molecule: CC(=O)OC(C)[C@@H](NC(=O)[C@@H](CC(C)C)N(C)C(=O)[C@@H]1CCCN1C(=O)C(C)O)C(=O)OCc1ccccc1 (some centres not stated) (H-[ξLac]P[dNMeL][dThr(3ξ)](Ac)-OBn)
TGI: > 100 µM

molecule: O=c1[nH]c(-c2cccc(F)c2)nc2ccccc12
TGI: > 93.1 µM

----------
- System: HOP-92 NSCLC
- assay text: NCI tumour cell line growth inhibition, 48 h
The following compounds are listed with their measured TGI values.

substance smiles: Cc1cc(C)c(O)c(Cc2cccc(Cc3cc(C)cc(C)c3O)c2O)c1
lt gt eq: >
TGI (µM): 100
//
substance smiles: Clc1ccc(Nc2nc(Cl)c3[nH]cnc3n2)cc1Cl
lt gt eq: =
TGI (µM): 53.4
//
substance smiles: CCOC(=O)c1c(C)nc2ccc(Cl)cc2c1-c1ccccc1
lt gt eq: =
TGI (µM): 20.8
//
substance smiles: O=CN1CCN(C(=O)c2cc(Cl)cc(Cl)c2)C1=S
lt gt eq: =
TGI (µM): 31.9
//
substance smiles: CC(=O)OCc1cc(OC(C)=O)cnc1COC(C)=O
lt gt eq: >
TGI (µM): 100
//
substance smiles: CC1(C)CC[C@]2(C(=O)O)CC[C@]3(C)C(=CC[C@@H]4[C@@]5(C)C[C@H](O)[C@H](O)[C@@](C)(CO)C5=CC[C@]43C)[C@@H]2C1
lt gt eq: >
TGI (µM): 100
